Assign composite z-score to each entry below.
biological target: Pro-neuregulin-1, membrane-bound isoform (Homo sapiens) (UniProt Q02297); assay: NRG1 binders on small-molecule microarrays, primary screen, psychiatric disease protein project, biochemical, small-molecule microarray, fluorescence 635/667 (AID 1075); conditions: NRG1 binding, 635 nm fluorescence, higher = more signal;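 further: score combines 667 nm spot fluorescence with signal to noise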
Sequence (Q02297 whole entry, looked up, canonical isoform): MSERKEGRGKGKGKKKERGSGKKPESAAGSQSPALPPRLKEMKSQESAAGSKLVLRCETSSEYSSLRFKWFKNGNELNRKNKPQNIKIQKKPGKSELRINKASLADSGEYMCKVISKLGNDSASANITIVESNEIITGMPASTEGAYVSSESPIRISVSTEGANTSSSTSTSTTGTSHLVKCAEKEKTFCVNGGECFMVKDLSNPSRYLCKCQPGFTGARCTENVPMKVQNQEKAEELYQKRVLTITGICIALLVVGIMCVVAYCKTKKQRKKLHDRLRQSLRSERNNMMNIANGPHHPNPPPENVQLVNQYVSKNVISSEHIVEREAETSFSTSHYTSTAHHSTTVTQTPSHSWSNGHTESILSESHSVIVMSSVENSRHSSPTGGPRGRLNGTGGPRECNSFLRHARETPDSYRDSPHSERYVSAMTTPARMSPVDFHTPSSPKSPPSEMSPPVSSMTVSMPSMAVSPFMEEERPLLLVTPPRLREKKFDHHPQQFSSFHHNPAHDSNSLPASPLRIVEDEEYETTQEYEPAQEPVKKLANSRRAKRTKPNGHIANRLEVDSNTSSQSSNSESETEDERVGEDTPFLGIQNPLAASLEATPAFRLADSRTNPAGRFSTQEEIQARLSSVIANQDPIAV
Answers are plain numbers.

Dear colleague, could you please provide composite z-score for the compounds listed below?
1. CC=CC(O)C1C=CC2C(=O)N(C)C(=O)C2N1Nc1ccc([N+](=O)[O-])cc1[N+](=O)[O-] (configuration not stated)
2. Cc1ccc(S[C@]2(C(=O)NC(C)C)CC(=O)N(Cc3ccccc3C(F)(F)F)[C@@H]2c2ccc(CO)cc2I)cc1
3. CON(C)C(=O)C=C1C[C@@H](c2cccc(Cl)c2)O[C@@H](c2cccc(Cl)c2)O1
4. O=C1NC(=O)C2C1C=CC(C(O)c1ccc(Br)cc1)N2Nc1ccccn1 (configuration not stated)
5. [N-]=[N+]=NCc1ccccc1C[C@@]1(C(=O)NCCN2CCOCC2)N=C(c2ccc(OCCCO)cc2)O[C@@H]1c1ccccc1N=[N+]=[N-]
6. CC(C)N1C(=O)[C@@]2(c3ccc([N+](=O)[O-])cc3)CC(=O)N(C3CCCCC3)[C@@H]2c2ccc(CO)cc21
7. COc1ccc([Si](C)(C)[C@H]2[C@H](CCn3cc(CCO)nn3)O[C@@]3(C(=O)N(Cc4ccc(N5C(=O)c6cccc7cccc5c67)cc4)c4ccccc43)[C@@H]2C)cc1

Result:
1.2
1.91
1
1.8
0.684
-0.299
1.16

====

Assign composite z-score to each entry below.
assay: binders of probe aFSTL3 on microarray, primary screen, stem cell growth factor project, biochemical, small-molecule microarray, fluorescence 635/667 (AID 1064); conditions: higher = more signal;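 further: measures binding of the biotinylated anti-FSTL3 antibody to printed compounds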

Reference set (2 entries):
[[record]]
compound = "C=CCOC(=O)[C@@H]1[C@H]2C(=O)O[C@H](c3ccccc3)[C@H](c3ccccc3)N2[C@H](c2ccc(OCCOC(=O)[C@H]3C[C@H]4C(=O)N[C@@H](CCCCN(C)C)C(=O)N4[C@H]3c3cccc(OCCO)c3)cc2)[C@@]12C(=O)Nc1ccc(I)cc12"
endpoint_value = 0.0594

[[record]]
compound = "CO[C@H]1O[C@H](CO)[C@@H](OC(=O)c2ccc(Br)cc2)[C@@H]2OC(=O)[C@@H](Cc3ccc4ccccc4c3)C/C=C/C[C@H](Cc3ccc4ccccc4c3)C(=O)O[C@@H]12"
endpoint_value = -0.248


Next compound, composite z-score to be filled in.
Query: For the compound O=C1OC[C@@H](c2ccccc2)N2CC(/C=C/c3ccccc3)=CC12 (stereo partly drawn) , what composite z-score is on record?
Result: 0.528

====

test: yeast growth modulation, basal conditions, primary screen, YJM789 clinical isolate, OD600, 24 h (AID 1089);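 further: growth of clinical yeast isolate S. cerevisiae YJM 789 seeded 1000 cells per well; test concentration not given here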; details: S. cerevisiae YJM789 growth, higher = more signal, called active from +8 up or from −8 down
Threshold check on z-score: at or above -0.3 gives Y, strictly below gives N.

Query: Please tell me: is the molecule `CCOC(=O)C1=CC[C@@H](c2ccccc2C(F)(F)F)N(S(=O)(=O)c2ccc(C)cc2)C1` at or over -0.3 in terms of z-score?
Result: N

Query: Another molecule to look at: C[C@]12C(=O)N(CCCCCCO)[C@@H]3C(=O)N(c4ccc(Cl)cc4)CC=CC31O[C@@H]1/C=C\CCCOC(=O)C12 (some centres not stated)
Result: N

Query: Another molecule to look at: `CCOC(=O)[C@H]1C/C=C/C[C@H](C(=O)OCC)C(=O)O[C@H]2[C@@H](OC)O[C@H](CO)[C@@H](OC(=O)Nc3ccc(OC)cc3)[C@@H]2OC1=O`
Result: Y

Query: Another molecule to look at: [N-]=[N+]=NCc1ccccc1C[C@]1(C(=O)NCC(O)CO)N=C(c2ccc(OCCCO)cc2)O[C@H]1c1ccccc1CN=[N+]=[N-] (some centres not stated)
Result: N

Query: Another molecule to look at: `CCCc1cccc(=O)o1`
Result: N

Query: Another molecule to look at: `NC(=O)NCC#Cc1ccc2c(c1)[C@]1(C(=O)N2)[C@H](c2ccc(O)cc2)N2[C@H](c3ccccc3)[C@H](c3ccccc3)OC(=O)[C@H]2[C@@H]1C(=O)Nc1nc2ccccc2s1`
Result: Y

Query: Another molecule to look at: O=C1NC(=O)C2C1C=CC(C(O)c1c(F)cccc1Cl)N2Nc1ccccn1 (configuration not stated)
Result: Y

====

test: small-molecule microarray binders of probe aEGFR, primary screen, biochemical, biotinylated probe, 635/667 nm fluorescence (AID 1097); conditions: higher = more signal;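 further: probe is a biotinylated anti-EGFR antibody binding compounds printed on slides; score combines fluorescence near 667 nm and signal to noise of each spot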
Threshold check on composite z-score: at or above 0.04 gives 1, strictly below gives 0.

[[record]]
compound = "COc1c(C)cc(-c2cc3c(c(-c4ccccc4)n2)[Si](C(C)C)(C(C)C)OC3)cc1C"
label_class = 0

[[record]]
compound = "C[N+](C)(C)CCCC[C@@H]1NC(=O)[C@@H]2C[C@H](C(=O)O)[C@H](c3ccc(O)cc3)N2C1=O"
label_class = 0


Query: Please tell me: is the compound CN1C2C=C(CCCO)C(C3C(=O)N(C(N)=O)C(=O)C32)C1c1cccs1 (stereo not given) at or over 0.04 in terms of composite z-score?
Result: 1

Query: Another compound to look at: `COc1ccc(CCNC(=O)[C@@]2(Sc3ccc(C)cc3)CC(=O)N(Cc3cc(C(F)(F)F)cc(C(F)(F)F)c3)[C@@H]2c2ccc(CO)cc2I)cc1`
Result: 0

Query: Another compound to look at: O=C1NC(=O)C2C1C=CC(C(O)c1cc(C(F)(F)F)cc(C(F)(F)F)c1)N2Nc1ccc(Cl)cc1Cl (stereo not given)
Result: 1

Query: Another compound to look at: CC=CC(O)C1C=CC2C(=O)N(c3ccccc3)C(=O)C2N1Nc1ccc([N+](=O)[O-])cc1 (stereo not given)
Result: 0

Query: Another compound to look at: `COc1ccc([Si](C)(C)[C@H]2[C@H](CCn3cc([C@H](O)c4ccccc4)nn3)O[C@@]3(C(=O)N(Cc4ccc(N5CCC5=O)cc4)c4ccccc43)[C@@H]2C)cc1`
Result: 0

====

experiment: HepG2 liver cancer cell viability effects, profiling panel, resazurin fluorescence, 24 h, PK04 Diversity Set (AID 1172); conditions: higher = more signal; further: test concentration not given here
Assign z-score to each entry below.
Give bare numbers.

Reference set (3 entries):
[[record]]
compound = "C=CC[C@@H](OC(=O)Nc1ccc(OC)cc1)c1ccc(OCCO)cc1"
endpoint_value = -0.197

[[record]]
compound = "COc1cc(CO)cc(I)c1O[C@H]1C=C(C(=O)NCCO)C[C@@H](N(Cc2ccc(F)cc2)C(=O)C2CCCO2)[C@@H]1O (some centres not stated)"
endpoint_value = 0.266

[[record]]
compound = "CC1CC/C=C\\[C@H]2OC34C=CCN(C(C)C)C(=O)[C@H]3N(CCCCCO)C(=O)[C@@H]4C2C(=O)O1 (some centres not stated)"
endpoint_value = 0.551


Dear colleague, could you please provide z-score for the compounds listed below?
1. CCOC(=O)[C@@H]1[C@@H]2C(=O)N(CC)C(=O)[C@@H]2C[C@@H]1Sc1ccccc1
2. CC(C)C(CO)N1C(=O)[C@]2(C)C3C(=O)OCCC/C=C\[C@H]3OC23C=CCN(c2ccc(Cl)cc2)C(=O)[C@@H]13 (some centres not stated)
3. COc1ccc([Si](C)(C)[C@@H]2[C@@H](CCn3cc([C@H](O)c4ccccc4)nn3)O[C@]3(C(=O)N(Cc4ccc(N5CCOC5=O)cc4)c4ccccc43)[C@H]2C)cc1
4. C=CCN1C(=O)[C@@]2(O[C@@H](CCO)[C@H]([Si](C)(C)c3ccc(OC)cc3)[C@H]2C)c2cc(N3C(=O)c4ccccc4Oc4ccccc43)ccc21

Result:
0.0632
-0.575
0.977
-6.08

====

biological target: Epidermal growth factor receptor (Homo sapiens) (UniProt P00533); experiment: EGFR binders on small-molecule microarrays, primary screen, biochemical, small-molecule microarray, 635 nm fluorescence (AID 1104); settings: EGFR binding, higher = more signal;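 further: score merges 667 nm emission intensity with spot signal to noise over triplicate slides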
Sequence (P00533 whole entry, looked up): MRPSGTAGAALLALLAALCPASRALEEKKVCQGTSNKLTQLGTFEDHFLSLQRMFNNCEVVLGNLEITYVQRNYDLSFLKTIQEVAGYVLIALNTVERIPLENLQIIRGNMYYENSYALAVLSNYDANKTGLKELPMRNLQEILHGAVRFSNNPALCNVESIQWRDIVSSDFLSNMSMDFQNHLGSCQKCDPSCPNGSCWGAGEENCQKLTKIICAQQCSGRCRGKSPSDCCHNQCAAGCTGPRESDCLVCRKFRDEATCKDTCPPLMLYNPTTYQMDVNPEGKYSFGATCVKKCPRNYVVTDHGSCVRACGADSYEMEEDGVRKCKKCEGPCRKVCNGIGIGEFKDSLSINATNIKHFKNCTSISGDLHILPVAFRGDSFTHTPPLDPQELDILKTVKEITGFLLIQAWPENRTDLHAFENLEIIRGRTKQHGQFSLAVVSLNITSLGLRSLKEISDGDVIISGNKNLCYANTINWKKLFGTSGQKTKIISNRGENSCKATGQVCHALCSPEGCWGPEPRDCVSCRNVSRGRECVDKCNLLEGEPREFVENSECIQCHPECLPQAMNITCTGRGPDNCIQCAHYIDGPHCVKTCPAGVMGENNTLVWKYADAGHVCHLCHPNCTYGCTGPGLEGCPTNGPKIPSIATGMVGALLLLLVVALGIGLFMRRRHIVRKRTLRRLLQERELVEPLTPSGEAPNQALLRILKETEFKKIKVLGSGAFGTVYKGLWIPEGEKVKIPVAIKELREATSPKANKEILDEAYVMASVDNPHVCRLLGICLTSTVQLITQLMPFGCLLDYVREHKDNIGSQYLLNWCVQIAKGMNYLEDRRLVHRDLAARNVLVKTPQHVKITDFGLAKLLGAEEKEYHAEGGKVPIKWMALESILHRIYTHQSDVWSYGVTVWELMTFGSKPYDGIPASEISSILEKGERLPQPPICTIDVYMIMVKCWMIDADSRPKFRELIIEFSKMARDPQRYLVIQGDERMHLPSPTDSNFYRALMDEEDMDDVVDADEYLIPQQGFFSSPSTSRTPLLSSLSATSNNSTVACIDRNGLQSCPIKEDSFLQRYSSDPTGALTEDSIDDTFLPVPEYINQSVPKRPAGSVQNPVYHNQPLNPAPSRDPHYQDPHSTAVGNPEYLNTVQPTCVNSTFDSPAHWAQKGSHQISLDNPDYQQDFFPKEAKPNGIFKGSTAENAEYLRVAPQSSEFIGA
Assign composite z-score to each entry below.
Answers are plain numbers.

Reference set (3 entries):
[[record]]
compound = "CC(C)CNC(=O)[C@@]1(c2ccc([N+](=O)[O-])cc2)CC(=O)N(C2CCCCC2)[C@@H]1c1ccc(CO)cc1I"
measurement_target = "Epidermal growth factor receptor (Homo sapiens) (UniProt P00533)"
endpoint_value = -0.519

[[record]]
compound = "C[C@H]1C2=C3C(CC[C@H]4C(OCc5ccc(F)cc5C(F)(F)F)OC[C@](C)([C@@H]34)N(C(=O)OC(C)(C)C)C2)C(CO)C1CO (some centres not stated)"
measurement_target = "Epidermal growth factor receptor (Homo sapiens) (UniProt P00533)"
endpoint_value = -0.249

[[record]]
compound = "COc1cc2c(cc1OC)CN(C(=O)[C@H]1[C@@H]3C(=O)O[C@@H](c4ccccc4)[C@@H](c4ccccc4)N3[C@@H](c3ccc(OCCO)cc3)[C@]13C(=O)Nc1ccc(C#CC4(O)CCCCCC4)cc13)CC2"
measurement_target = "Epidermal growth factor receptor (Homo sapiens) (UniProt P00533)"
endpoint_value = 1.02


Dear colleague, could you please provide composite z-score for the compounds listed below?
1. COc1ccc([Si](C)(C)[C@H]2[C@H](CCO)O[C@@]3(C(=O)N(Cc4cccc(N5CCCCC5=O)c4)c4ccccc43)[C@@H]2C)cc1
2. COc1cc2c(cc1OC)CN(C(=O)[C@@H]1[C@H]3C(=O)O[C@H](c4ccccc4)[C@H](c4ccccc4)N3[C@H](c3ccccc3OCCO)[C@@]13C(=O)Nc1ccc(C#CC4(O)CCCCCC4)cc13)CC2
3. NC(=O)NCC#Cc1ccc2c(c1)[C@]1(C(=O)N2)[C@H](c2ccc(O)cc2)N2[C@H](c3ccccc3)[C@H](c3ccccc3)OC(=O)[C@H]2[C@@H]1C(=O)Nc1nc2ccccc2s1
4. CC(C)C(=C=CC[C@@H](O)c1ccccc1OCCO)C[C@@H](O)COCc1ccccc1
5. CCCN1C(=O)[C@]2(Cc3ccccc3)N=C(c3ccc(OCCCO)cc3)O[C@@H]2c2ccccc21

Result:
[0.525, 0.368, 0.581, 0.22, 0.642]

Dear colleague, could you please provide composite z-score for the compounds listed below?
1. COc1ccc(NC(=O)O[C@H]2[C@H](OC(=O)Nc3ccc4c(c3)OCO4)[C@@H](OC(=O)Nc3ccc4c(c3)OCO4)[C@@H](OC)O[C@@H]2CO)cc1
2. C=C(CCCC)C(=O)CC[C@@H](OC(=O)c1ccccc1-c1ccccc1C(=O)O)c1cccc(OCCO)c1
3. COc1cc(CO)cc(I)c1O[C@H]1C=C(C(=O)NCCO)C[C@@H](N(CC2CCCCC2)C(=O)c2ccc(C(F)(F)F)cc2)[C@@H]1O

Result:
1: 0.0699; 2: -0.0833; 3: 0.515

Query: // fetch Epidermal growth factor receptor (Homo sapiens) (UniProt P00533) composite z-score for `C=CCOC(=O)[C@H]1[C@@H]2C(=O)O[C@@H](c3ccccc3)[C@@H](c3ccccc3)N2[C@@H](c2ccc(OCCOC(=O)[C@H]3C[C@H]4C(=O)N[C@@H](CCCC[N+](C)(C)C)C(=O)N4[C@H]3c3cccc(OCCO)c3)cc2)[C@]12C(=O)Nc1ccc(I)cc12`
Result: 0.335

# credit: PubChem BioAssay
